Property: interaction score; scope: individual binders
Biological target: T1, 4H3446-AA
T1 chain: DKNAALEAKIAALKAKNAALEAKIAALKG
Assay: two-hybrid library CCmax;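 also: natural log of median RNA to DNA barcode read ratio; higher means stronger binding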
Conditions: mean of both orientations

[
  {
    "Binder": "DKNAALEAEIAALEAKNAALEAEIAALEG [4H3121-AA]",
    "interaction score": 1.8
  },
  {
    "Binder": "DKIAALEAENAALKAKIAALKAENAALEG [4H2283-AA]",
    "interaction score": -1.15
  },
  {
    "Binder": "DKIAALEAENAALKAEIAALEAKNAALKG [4H2248-AA]",
    "interaction score": 0.189
  }
]
